Target: human insulin receptor (HIR) (human, UniProt P06213)
Assay: competition
pKd: −log10 of the molar value.
endpoint label: pKd

Name the recorded pKd of the binder listed here: FHENAYDWFVRQVSKK [S219]
< 5.70

Name the recorded pKd of the binder listed here: AFYDWFAKK [S167]
< 5.70

Name the recorded pKd of the binder listed here: AFYDWFAK [S180]
< 5.70

Name the recorded pKd of the binder listed here: WPGYAWLS [S317]
< 4.70

Name the recorded pKd of the binder listed here: WLEQERAWIWCEIQGSGCRA [S263 (D8B12)]
< 4.70
